Cited source for all entries: patent US20140235626A1

- systemName: Recombinant human BACE-1 (Homo sapiens, UniProt P56817)
- Sequence (P56817 46-501): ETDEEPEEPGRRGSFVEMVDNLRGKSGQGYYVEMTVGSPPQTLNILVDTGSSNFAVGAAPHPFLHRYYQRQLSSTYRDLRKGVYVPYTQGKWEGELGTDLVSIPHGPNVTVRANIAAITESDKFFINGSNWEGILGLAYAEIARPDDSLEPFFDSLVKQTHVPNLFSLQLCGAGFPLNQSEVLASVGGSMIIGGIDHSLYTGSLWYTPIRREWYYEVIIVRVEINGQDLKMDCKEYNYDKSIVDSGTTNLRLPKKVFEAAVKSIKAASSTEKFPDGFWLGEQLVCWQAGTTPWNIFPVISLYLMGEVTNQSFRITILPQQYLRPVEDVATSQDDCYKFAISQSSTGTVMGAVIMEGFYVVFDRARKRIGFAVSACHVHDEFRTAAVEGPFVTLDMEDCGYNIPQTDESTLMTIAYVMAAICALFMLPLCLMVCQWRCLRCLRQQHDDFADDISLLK
- experiment: Assay of BACE-1 inhibiting activity
- assayConditions: Recombinant human BACE-1 7.4 nmol/L, substrate peptide 18 nmol/L, pH 5.0, 30° C., 3.5 hours; read-out: IC50 value (50% inhibitory concentration against the enzymatic activity)
IC50 overview
Just the number please, in nM, no unit attached.

>  <compoundStructureString>
C=C1C[C@@](C)(c2cc(NC(=O)c3ccc(C(F)F)cn3)ccn2)N=C(N)S1

>  <IC50 (nM)>
48

$$$$

Specify reported IC50 for the compound shown: C#Cc1ccc(C(=O)Nc2ccnc([C@]3(C)CCSC(N)=N3)c2)nc1
78

====

pIC50 overview
- systemName: Recombinant human BACE-1 (Homo sapiens)
- experiment: Assay of BACE-1 inhibiting activity
- assayConditions: Recombinant human BACE-1 7.4 nmol/L, substrate peptide 18 nmol/L, pH 5.0, 30° C., 3.5 hours; read-out: IC50 value (50% inhibitory concentration against the enzymatic activity)
pIC50: −log10 of the molar value.

See these solved cases before continuing.
>  <compoundStructureString>
C[C@@]1(c2cc(NC(=O)c3cnc(OC(F)F)cn3)ccn2)C=CSC(N)=N1

>  <readoutLabel>
pIC50

>  <obsValue>
7.48

$$$$
>  <compoundStructureString>
C[C@@H]1C[C@@](C)(c2cc(NC(=O)c3ccccn3)ccn2)N=C(N)S1

>  <readoutLabel>
pIC50

>  <obsValue>
≥ 6.00

$$$$
>  <compoundStructureString>
C[C@@]1(c2cc(NC(=O)c3ccc(C#N)cn3)ccn2)C=CSC(N)=N1.O=C(O)C(O)C(O)C(=O)O

>  <readoutLabel>
pIC50

>  <obsValue>
≥ 6.00

$$$$
>  <compoundStructureString>
C[C@@]1(c2cc(NC(=O)c3ccccn3)ccn2)CCSC(N)=N1

>  <readoutLabel>
pIC50

>  <obsValue>
≥ 6.00

$$$$
>  <compoundStructureString>
C[C@@H]1C[C@@](C)(c2cc(NC(=O)c3cnccn3)ccn2)N=C(N)S1

>  <readoutLabel>
pIC50

>  <obsValue>
≥ 6.00

$$$$

Specify reported pIC50 for the molecule shown: NC1=N[C@](CF)(c2cc(NC(=O)c3cnc(C(F)F)cn3)ccn2)CCS1
≥ 6.00

Specify reported pIC50 for the molecule shown: Cc1cnc(C(=O)Nc2ccnc([C@]3(C)C[C@@H](C)SC(N)=N3)c2)cn1
≥ 6.00

Specify reported pIC50 for the molecule shown: CC#Cc1ccc(C(=O)Nc2ccnc([C@]3(C)CCSC(N)=N3)c2)nc1
≥ 6.00
